From: patent US20080293712A1

molecular target: PKA (Homo sapiens, UniProt P17612); test: PKA kinase inhibition, Z'-LYTE FRET assay; assay type: biochemical; conditions: 100 μM ATP
test_readout: pIC50
Give bare numbers, as −log10 of the molar value.

For each of the compounds below, state pIC50.
1. COc1cc2ncc3c(N)nc(-c4cncc(OC[C@H](N)Cc5c[nH]c6ccccc56)c4)cc3c2cc1OC
2. COCCOc1cc2ncc3c(N)nc(-c4cncc(OC[C@@H](N)Cc5ccccc5)c4)cc3c2cc1OC
3. COc1cc2ncc3c(N)nc(-c4cncc(OC[C@@H](N)Cc5ccccc5Cl)c4)cc3c2cc1OC
4. COCCN(C)C[C@H](N)COc1cncc(-c2cc3c(cnc4cc(OC)c(OC)cc43)c(N)n2)c1
5. Nc1nc(-c2cncc(OC[C@@H](N)Cc3ccccc3)c2)cc2c1cnc1cc(C#CCCn3ccnc3)ccc12
6. Nc1nc(-c2cncc(OC[C@@H](N)Cc3ccccc3)c2)cc2c1cnc1cc(/C=C/CCN3CCCC3)ccc12
7. COc1cc2ncc3c(N)nc(-c4cncc(OC[C@@H](N)Cc5ccc(F)cc5)c4)cc3c2cc1OC

Reply:
1: 5.88; 2: 6.41; 3: 6.10; 4: 5.98; 5: 6.06; 6: 7.15; 7: 6.74

For each of the compounds below, state pIC50.
1. COc1cc2ncc3c(N)nc(-c4cncc(OC[C@@H](N)COCc5ccccc5)c4)cc3c2cc1OC
2. COc1cc2ncc3c(N)nc(-c4cncc(OC[C@H](N)Cc5ccccc5)c4)cc3c2cc1OC

Reply:
1: 6.15; 2: 6.59

----------
Biological target: PDK-1 (Homo sapiens)
Sequence (O15530 1-556): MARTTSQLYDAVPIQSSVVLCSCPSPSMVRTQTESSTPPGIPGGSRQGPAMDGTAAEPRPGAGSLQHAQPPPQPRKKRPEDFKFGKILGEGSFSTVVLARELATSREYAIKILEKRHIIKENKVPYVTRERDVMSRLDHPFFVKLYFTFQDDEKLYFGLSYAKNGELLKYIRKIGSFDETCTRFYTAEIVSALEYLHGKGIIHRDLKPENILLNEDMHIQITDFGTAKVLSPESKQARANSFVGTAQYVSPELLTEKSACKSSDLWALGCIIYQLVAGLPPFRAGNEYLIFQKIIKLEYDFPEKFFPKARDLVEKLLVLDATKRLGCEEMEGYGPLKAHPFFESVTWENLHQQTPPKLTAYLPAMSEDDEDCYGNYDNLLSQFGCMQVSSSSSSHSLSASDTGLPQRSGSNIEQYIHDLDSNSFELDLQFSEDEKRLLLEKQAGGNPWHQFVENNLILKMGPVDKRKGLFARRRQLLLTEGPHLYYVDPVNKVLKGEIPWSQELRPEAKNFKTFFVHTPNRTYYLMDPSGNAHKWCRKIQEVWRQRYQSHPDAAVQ
Assay: PDK-1 kinase inhibition ELISA assay (phosphorylation of His6-tagged SGK1 S422D by PDK-1)
Assay type: biochemical
Details: PDK-1 ELISA, Table 11; read-out: Average IC50
test_readout: IC50 (nM)
Numbers only, in nM.

# record_smiles, IC50 / nM
data = [
    ("COc1cc2ncc3c(N)nc(-c4cncc(OC[C@@H](N)COc5nccc6ccccc56)c4)cc3c2cc1OC", 10),
]

For each of the compounds below, state IC50.
1. COc1cc2ncc3c(N)nc(-c4cncc(Oc5ccncc5N)c4)cc3c2cc1OC
2. COc1cc2ncc3c(N)nc(-c4cncc(OC[C@@H](N)CNCC5(c6ccccc6)CCCC5)c4)cc3c2cc1OC

Reply:
115
41

----------
biological target: PKA (Homo sapiens); test: PKA kinase inhibition, Z'-LYTE FRET assay; type: biochemical; details: 20 μM ATP
test_readout: IC50

These solved cases illustrate the format of a correct answer.
# record_smiles, system_name, test_readout, recorded_measurement
rows = [
    ("COc1cc2ncc3c(N)nc(-c4cncc(OC[C@H](N)Cc5c[nH]c6ccccc56)c4)cc3c2cc1OC", "PKA (Homo sapiens)", "IC50", "< 0.08 µM"),
    ("CCN1CCN(CCC#Cc2ccc3ncc4c(N)nc(-n5ccnc5)cc4c3c2)CC1", "PKA (Homo sapiens)", "IC50", "> 10 µM"),
    ("CCOc1cc2ncc3c(N)nc(-n4ccnc4)cc3c2cc1NC(=O)Nc1ccc(N(C)C)cc1", "PKA (Homo sapiens)", "IC50", "> 20 µM"),
]

For each of the molecules below, state IC50.
1. COc1cc2c(cc1OCCN1CCOCC1)ncc1c(N)nc(-n3ccnc3)cc12
2. COc1cc2ncc3c(N)nc(-c4cncn4C)cc3c2cc1OC
3. COc1cc2ncc3c(N)nc(-c4cncc(OC[C@@H](N)Cc5ccc(F)cc5)c4)cc3c2cc1OC
4. COCCN(C[C@H](N)COc1cncc(-c2cc3c(cnc4cc(OC)c(OC)cc43)c(N)n2)c1)c1ccccc1
5. COc1cc2c(cc1OCCCN1CCOCC1)ncc1c(N)nc(-n3ccnc3)cc12
6. COc1cc2c(cc1OCCCN1CCCC1)ncc1c(N)nc(-c3cccnc3)cc12

Reply:
1: > 10 µM; 2: > 20 µM; 3: < 0.032 µM; 4: < 0.032 µM; 5: > 10 µM; 6: > 20 µM

----------
For each of the compounds below, state its IC50.
molecular target: PDK-1 (Homo sapiens, UniProt O15530); assay: PDK-1 kinase inhibition ELISA assay (phosphorylation of His6-tagged SGK1 S422D by PDK-1); assay type: biochemical; conditions: PDK-1 ELISA, Table 11; read-out: Average IC50
Give bare numbers, in nM.

For each of the compounds below, state IC50.
1. COc1cc2ncc3c(N)nc(-c4cncc(OC[C@@H](N)CNCC(F)(F)F)c4)cc3c2cc1OC [Ib-109]
2. COCCOc1cc2ncc3c(N)nc(N(C)C4CCN(C)C4)cc3c2cc1OC (stereo not drawn) [Ia-52]
3. COc1cc2ncc3c(N)nc(-c4cncc(Oc5ncccc5N)c4)cc3c2cc1OC [Ib-169]
4. COc1cc2ncc3c(N)nc(-c4cncc(OC[C@@H](C)N)c4)cc3c2cc1OC [Ib-30]
5. CCSc1cc2ncc3c(N)nc(-c4cncc(OC[C@@H](N)Cc5ccccc5)c4)cc3c2cc1OC [Ia-40]
6. COc1cc2ncc3c(N)nc(-c4cncc(Nc5cccc(CO)c5)c4)cc3c2cc1OC [Ib-195]
7. COc1cc2ncc3c(N)nc(-c4cncc(OC[C@@H](N)Cc5ccccc5)c4)cc3c2cc1OC [Ib-62]
8. COc1cc2ncc3c(N)nc(-c4cncc(Nc5ccccc5N)c4)cc3c2cc1OC [Ib-182]

Reply:
1. 14
2. 3280
3. 60
4. 2
5. 44.5
6. 67
7. 10
8. 50.7

Ask: Sample COc1cc2ncc3c(N)nc(-c4cncc(OC[C@H](N)Cc5cccc(C(F)(F)F)c5)c4)cc3c2cc1OC [Ib-28] — what was its IC50?
Reply: 21

----------
target: UniProtKB O15530; assay: PDK-1 kinase inhibition ELISA assay (phosphorylation of His6-tagged SGK1 S422D by PDK-1); type: biochemical; conditions: PDK-1 ELISA, Table 11; read-out: Average IC50
Please assign -1 whenever IC50 is at or above 80 nM, and 1 whenever it is below.

Here are 4 molecules together with their reported answers.
# molecule, category_label
rows = [
    ("COc1cc2ncc3c(N)nc(-c4cncc(OC[C@@H](N)CNC(C)(C)C)c4)cc3c2cc1OC", 1),
    ("COc1cc2ncc3c(N)nc(-c4cncc(OC[C@@H](N)CNC5CCC(O)CC5)c4)cc3c2cc1OC (stereo partly drawn)", 1),
    ("CCC(C)NC(=N)c1cncc(-c2cc3c(cnc4cc(OC)c(OC)cc43)c(N)n2)c1 (stereo not drawn)", -1),
    ("COc1cc2ncc3c(N)nc(-c4cncc(OC[C@@H](N)CNC(C)(C)c5cccnc5)c4)cc3c2cc1OC", 1),
]

Turning to the following molecule.
Ask: In the record for "COc1cc2c(cc1OCCCCl)ncc1c(N)nc(-n3ccnc3)cc12" , is IC50 less than 80 nM?
Reply: -1

----------
target: PKA (Homo sapiens, UniProt P17612); experiment: PKA kinase inhibition, Z'-LYTE FRET assay; format: biochemical; conditions: 100 μM ATP
For each of the molecules below, state its IC50.

These solved cases illustrate the format of a correct answer.
# record_smiles, system_name, IC50
data = [
    ("COc1cc2c(cc1OCCCN1CCCC1)ncc1c(N)nc(-c3cccnc3)cc12", "PKA (Homo sapiens, UniProt P17612)", "> 2000 nM"),
    ("COc1cc2c(cc1OCCCCl)ncc1c(N)nc(-n3ccnc3)cc12", "PKA (Homo sapiens, UniProt P17612)", "> 2000 nM"),
]

For each of the molecules below, state IC50.
1. COCCOc1cc2ncc3c(N)nc(-n4ccnc4)cc3c2cc1OC
2. Nc1nc(-n2ccnc2)cc2c1cnc1cc(/C=C/CCN3CCCC3)ccc12
3. COc1cc2ncc3c(N)nc(-c4cncc(OC[C@@H](N)Cc5cccc(C(F)(F)F)c5)c4)cc3c2cc1OC
4. CCOc1cc2ncc3c(N)nc(-n4ccnc4)cc3c2cc1N

Reply:
1. > 2000 nM
2. > 2000 nM
3. 198 to 219 nM
4. > 2000 nM
